Origin of measurements: patent US20260021103A1

testedOn: GSPT1 (Homo sapiens, UniProt P15170+Q96SW2)
Sequence (P15170 whole entry): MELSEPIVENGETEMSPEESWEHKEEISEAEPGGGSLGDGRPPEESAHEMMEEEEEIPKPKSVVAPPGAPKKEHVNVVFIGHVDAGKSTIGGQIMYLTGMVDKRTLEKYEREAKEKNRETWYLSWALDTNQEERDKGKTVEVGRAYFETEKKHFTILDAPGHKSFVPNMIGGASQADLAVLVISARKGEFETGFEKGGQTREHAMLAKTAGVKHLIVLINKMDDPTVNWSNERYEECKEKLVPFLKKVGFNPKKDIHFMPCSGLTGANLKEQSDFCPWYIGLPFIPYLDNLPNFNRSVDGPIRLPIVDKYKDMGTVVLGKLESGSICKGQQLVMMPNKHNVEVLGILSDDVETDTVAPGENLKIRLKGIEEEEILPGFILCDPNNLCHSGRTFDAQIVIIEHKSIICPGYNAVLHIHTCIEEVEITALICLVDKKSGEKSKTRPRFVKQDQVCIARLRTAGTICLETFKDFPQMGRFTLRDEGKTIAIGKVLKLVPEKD
Sequence (Q96SW2 whole entry): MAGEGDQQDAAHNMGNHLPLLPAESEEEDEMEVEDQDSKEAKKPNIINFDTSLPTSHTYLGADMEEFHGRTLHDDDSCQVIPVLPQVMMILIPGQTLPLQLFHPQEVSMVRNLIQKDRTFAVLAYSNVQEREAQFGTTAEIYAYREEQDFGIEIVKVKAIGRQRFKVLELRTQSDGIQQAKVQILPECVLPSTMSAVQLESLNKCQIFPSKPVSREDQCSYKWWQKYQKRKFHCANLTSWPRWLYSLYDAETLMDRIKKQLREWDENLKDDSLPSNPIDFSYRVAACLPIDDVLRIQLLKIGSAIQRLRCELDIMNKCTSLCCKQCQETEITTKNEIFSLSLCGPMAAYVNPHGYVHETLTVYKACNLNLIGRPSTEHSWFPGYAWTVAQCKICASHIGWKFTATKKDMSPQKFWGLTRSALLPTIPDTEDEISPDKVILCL
Sequence (Q16531 whole entry partner): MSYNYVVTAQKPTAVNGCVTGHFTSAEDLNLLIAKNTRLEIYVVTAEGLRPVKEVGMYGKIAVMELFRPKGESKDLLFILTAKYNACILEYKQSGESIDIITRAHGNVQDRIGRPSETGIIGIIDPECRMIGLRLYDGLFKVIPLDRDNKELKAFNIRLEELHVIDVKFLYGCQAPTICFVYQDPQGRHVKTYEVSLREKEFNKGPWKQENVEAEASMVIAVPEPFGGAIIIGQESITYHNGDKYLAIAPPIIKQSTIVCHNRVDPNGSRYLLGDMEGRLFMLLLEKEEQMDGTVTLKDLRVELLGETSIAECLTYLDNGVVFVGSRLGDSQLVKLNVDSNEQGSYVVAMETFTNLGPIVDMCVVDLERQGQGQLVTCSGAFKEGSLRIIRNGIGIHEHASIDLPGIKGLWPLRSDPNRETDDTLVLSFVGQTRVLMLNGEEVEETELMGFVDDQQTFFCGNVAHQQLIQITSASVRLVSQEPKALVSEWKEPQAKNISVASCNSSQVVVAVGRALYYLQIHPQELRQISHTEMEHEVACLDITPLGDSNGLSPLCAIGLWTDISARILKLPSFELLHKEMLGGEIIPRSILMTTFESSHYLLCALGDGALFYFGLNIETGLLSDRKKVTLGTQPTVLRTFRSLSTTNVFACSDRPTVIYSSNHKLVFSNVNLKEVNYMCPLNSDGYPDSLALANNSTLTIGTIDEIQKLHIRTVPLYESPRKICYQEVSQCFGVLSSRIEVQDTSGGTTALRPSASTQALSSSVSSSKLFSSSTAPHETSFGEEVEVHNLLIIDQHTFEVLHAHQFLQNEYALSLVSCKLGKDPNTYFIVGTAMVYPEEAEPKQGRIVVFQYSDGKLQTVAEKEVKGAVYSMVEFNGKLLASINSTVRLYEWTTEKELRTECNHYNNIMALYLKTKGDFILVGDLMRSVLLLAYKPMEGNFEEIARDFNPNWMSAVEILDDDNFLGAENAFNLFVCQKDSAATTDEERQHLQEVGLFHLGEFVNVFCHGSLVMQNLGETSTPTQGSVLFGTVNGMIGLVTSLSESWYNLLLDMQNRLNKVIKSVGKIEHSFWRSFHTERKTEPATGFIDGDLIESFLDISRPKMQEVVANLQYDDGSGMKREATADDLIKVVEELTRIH
methodNotes: Flow cytometry for measuring degradation, HEK293T GFP-POI reporter cells (GSPT1)
Assay type: cell-based
Parameters: expressed in transfected cells; host or cells: HEK293T
experimentalSetup: 100 nM, 24 h, HEK293T GFP reporter
measurementKind: GSPT1% degradation at 100 nM (%)

Check out these entries, answers already filled in.
COc1cccc2c1C=C(C(=O)Nc1ccc3c(c1)CN(C1CCC(=O)NC1=O)C3=O)CO2 (centres unmarked)    24
O=C1CCC(N2Cc3cc(NC(=O)c4ccc5c(c4)OCCO5)ccc3C2=O)C(=O)N1 (centres unmarked)    5

A. O=C1CCC(N2Cc3cc(NC(=O)c4ccc5cc(O)ccc5c4)ccc3C2=O)C(=O)N1 (centres unmarked)
B. O=C1CCC(N2Cc3cc(NC(=O)C4=COc5ccccc5O4)ccc3C2=O)C(=O)N1 (centres unmarked)
C. O=C1CCC(N2Cc3cc(NC(=O)Cc4cccc5ccccc45)ccc3C2=O)C(=O)N1 (centres unmarked)
Hi! Can you put these in order of GSPT1% degradation at 100 nM, lowest number first? Answer by writing out the labels in the requested order.
A, B, C
(A: −1.9%, B: −0.1%, C: 25.3%)

###

testedOn: CK1α (Homo sapiens, UniProt P48729+Q96SW2)
Construct: expressed in transfected cells; host or cells: HEK293T (lentiviral transduction, puromycin selection, FACS sorting)
Sequence (P48729 whole entry): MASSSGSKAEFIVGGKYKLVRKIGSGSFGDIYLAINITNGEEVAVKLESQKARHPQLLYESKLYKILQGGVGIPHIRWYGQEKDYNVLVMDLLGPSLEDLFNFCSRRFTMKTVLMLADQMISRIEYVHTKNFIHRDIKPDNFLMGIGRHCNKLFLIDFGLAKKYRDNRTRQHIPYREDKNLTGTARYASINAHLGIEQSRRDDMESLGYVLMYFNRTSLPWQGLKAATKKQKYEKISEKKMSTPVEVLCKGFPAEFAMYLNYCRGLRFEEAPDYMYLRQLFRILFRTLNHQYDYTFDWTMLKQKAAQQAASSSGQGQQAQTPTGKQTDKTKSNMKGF
Sequence (Q96SW2 whole entry): as the sequence (Q96SW2 whole entry) above
Sequence (Q16531 whole entry partner): as the sequence (Q16531 whole entry partner) above
methodNotes: Flow cytometry for measuring degradation, HEK293T GFP-POI reporter cells (CK1α)
Type: cell-based
experimentalSetup: 100 nM, 24 h, HEK293T GFP reporter
measurementKind: CK1α % degradation at 100 nM (%)

CSc1ccc2cc(C(=O)Nc3ccc4c(c3)CN(C3CCC(=O)NC3=O)C4=O)ccc2c1 (centres unmarked)    76.5

I. COCOc1ccc2cc(C(=O)Nc3ccc4c(c3)CN(C3CCC(=O)NC3=O)C4=O)ccc2c1 (centres unmarked)
II. O=C1CCC(N2Cc3cc(NC(=O)C4=Cc5cc(Br)cc(Br)c5OC4)ccc3C2=O)C(=O)N1 (centres unmarked)
Thinking about recorded CK1α % degradation at 100 nM values, which is higher, I or II ? Label of pick, please.
I

###

testedOn: CK1α (Homo sapiens, UniProt P48729+Q96SW2)
Construct: expressed in transfected cells; host or cells: HEK293T (lentiviral transduction, puromycin selection, FACS sorting)
methodNotes: Flow cytometry for measuring degradation, HEK293T GFP-POI reporter cells (CK1α)
Type: cell-based
experimentalSetup: 100 nM, 24 h, HEK293T GFP reporter
measurementKind: CK1α % degradation at 100 nM (%)

O=C1CCC(N2Cc3cc(NC(=O)c4ccc(Oc5ccccc5)cc4)ccc3C2=O)C(=O)N1 (stereo not drawn) [DEG-61]    60.9
O=C1CCC(N2Cc3cc(NC(=O)c4cc5ccccc5o4)ccc3C2=O)C(=O)N1 (stereo not drawn) [DEG-59]    61.7
COc1cccc2c1C=C(C(=O)Nc1ccc3c(c1)CN(C1CCC(=O)NC1=O)C3=O)CO2 (stereo not drawn) [DEG-79]    59.4

###

testedOn: IKZF2 (Homo sapiens, UniProt Q96SW2+Q9UKS7)
Construct: expressed in transfected cells; host or cells: HEK293T (lentiviral transduction, puromycin selection, FACS sorting)
Sequence (Q9UKS7 whole entry): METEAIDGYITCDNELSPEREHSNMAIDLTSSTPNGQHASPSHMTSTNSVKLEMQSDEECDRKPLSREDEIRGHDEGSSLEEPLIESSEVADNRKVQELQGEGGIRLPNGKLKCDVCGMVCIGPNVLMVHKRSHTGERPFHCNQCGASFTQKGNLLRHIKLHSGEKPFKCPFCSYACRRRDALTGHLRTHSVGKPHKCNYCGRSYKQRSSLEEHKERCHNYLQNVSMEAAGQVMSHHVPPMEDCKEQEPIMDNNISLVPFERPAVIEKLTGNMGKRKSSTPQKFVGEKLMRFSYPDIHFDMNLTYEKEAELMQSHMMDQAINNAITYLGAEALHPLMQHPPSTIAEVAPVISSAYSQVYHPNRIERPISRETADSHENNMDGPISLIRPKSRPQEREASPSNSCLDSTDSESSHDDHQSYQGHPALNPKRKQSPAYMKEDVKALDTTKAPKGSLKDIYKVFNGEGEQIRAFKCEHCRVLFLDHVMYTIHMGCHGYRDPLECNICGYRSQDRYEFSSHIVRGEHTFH
Sequence (Q96SW2 whole entry): as the sequence (Q96SW2 whole entry) above
Sequence (Q16531 whole entry partner): as the sequence (Q16531 whole entry partner) above
methodNotes: Flow cytometry for measuring degradation, HEK293T GFP-POI reporter cells (IKZF2)
Format: cell-based
experimentalSetup: 100 nM, 24 h, HEK293T GFP reporter
measurementKind: IKZF2% degradation at 100 nM (%)

Check out these entries, answers already filled in.
O=C1CCC(N2Cc3cc(NC(=O)c4cc5ccccc5o4)ccc3C2=O)C(=O)N1 (stereo not drawn) [DEG-59]    79.7
O=C1CCC(N2Cc3cc(NC(=O)C4=Cc5ccc(Br)cc5OC4)ccc3C2=O)C(=O)N1 (stereo not drawn) [DEG-83]    80.4
COc1ccc(CCC(=O)Nc2ccc3c(c2)CN(C2CCC(=O)NC2=O)C3=O)cc1 (stereo not drawn) [DEG-57]    76.2

1. COc1ccc(Oc2ccc(C(=O)Nc3ccc4c(c3)CN(C3CCC(=O)NC3=O)C4=O)cc2)cc1 (stereo not drawn) [DEG-70]
2. O=C1CCC(N2Cc3cc(NC(=O)C4=Cc5ccccc5OC4)ccc3C2=O)C(=O)N1 (stereo not drawn) [DEG-52]
Thinking about recorded IKZF2% degradation at 100 nM values, which is higher, 1 or 2 ? Label of pick, please.
2
(2: 83.9%, 1: 53.6%)

###

testedOn: GSPT1 (Homo sapiens, UniProt P15170+Q96SW2)
methodNotes: Flow cytometry for measuring degradation, HEK293T GFP-POI reporter cells (GSPT1)
Assay type: cell-based
Design: expressed in transfected cells; host or cells: HEK293T
experimentalSetup: 100 nM, 24 h, HEK293T GFP reporter
measurementKind: GSPT1% degradation at 100 nM (%)

COc1cc(C(=O)Nc2ccc3c(c2)CN(C2CCC(=O)NC2=O)C3=O)ccc1Oc1ccccc1 (stereo not drawn)    12.1

1. C[C@H](NC(=O)c1ccccc1)C(=O)Nc1ccc2c(c1)CN(C1CCC(=O)NC1=O)C2=O (stereo partly drawn)
2. O=C1CCC(N2Cc3cc(NC(=O)c4cccc(Oc5ccccc5)c4)ccc3C2=O)C(=O)N1 (stereo not drawn)
Which record shows the lower GSPT1% degradation at 100 nM: the first, 1 , or the second, 2 ? Label of pick, please.
1

###

testedOn: CK1α (Homo sapiens, UniProt P48729+Q96SW2)
Construct: expressed in transfected cells; host or cells: HEK293T (lentiviral transduction, puromycin selection, FACS sorting)
methodNotes: Flow cytometry for measuring degradation, HEK293T GFP-POI reporter cells (CK1α)
Type: cell-based
experimentalSetup: 1 μM, 24 h, HEK293T GFP reporter
measurementKind: CK1α % degradation at 1 μM (%)

I. COc1ccc(Oc2cccc(C(=O)Nc3ccc4c(c3)CN(C3CCC(=O)NC3=O)C4=O)c2)cc1 (stereo not shown)
II. O=C1CCC(N2Cc3cc(NC(=O)Cc4ccc5ccccc5c4)ccc3C2=O)C(=O)N1 (stereo not shown)
III. O=C1CCC(N2Cc3cc(NC(=O)C4=Cc5ccc(Br)cc5OC4)ccc3C2=O)C(=O)N1 (stereo not shown)
Order the entries above by descending CK1α % degradation at 1 μM. Answer by writing out the labels in the requested order.
I, III, II
(I: 65.5%, III: 30.2%, II: −153%)

###

testedOn: IKZF1 (Homo sapiens, UniProt Q13422+Q96SW2)
Construct: expressed in transfected cells; host or cells: HEK293T (lentiviral transduction, puromycin selection, FACS sorting)
Sequence (Q13422 whole entry): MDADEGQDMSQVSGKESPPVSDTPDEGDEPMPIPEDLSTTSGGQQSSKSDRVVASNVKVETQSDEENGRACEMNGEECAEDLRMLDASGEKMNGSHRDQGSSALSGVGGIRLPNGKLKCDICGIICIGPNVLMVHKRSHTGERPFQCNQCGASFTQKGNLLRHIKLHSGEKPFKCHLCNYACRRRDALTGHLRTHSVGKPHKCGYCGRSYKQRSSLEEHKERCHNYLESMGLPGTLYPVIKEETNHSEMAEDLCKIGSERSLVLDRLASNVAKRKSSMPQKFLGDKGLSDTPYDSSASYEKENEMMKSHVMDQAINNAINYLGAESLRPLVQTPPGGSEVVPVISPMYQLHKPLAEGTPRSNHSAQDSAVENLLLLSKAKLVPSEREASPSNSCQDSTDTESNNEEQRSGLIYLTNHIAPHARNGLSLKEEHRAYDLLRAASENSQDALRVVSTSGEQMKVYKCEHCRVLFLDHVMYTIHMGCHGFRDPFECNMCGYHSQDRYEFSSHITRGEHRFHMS
Sequence (Q96SW2 whole entry): as the sequence (Q96SW2 whole entry) above
Sequence (Q16531 whole entry partner): as the sequence (Q16531 whole entry partner) above
methodNotes: Flow cytometry for measuring degradation, HEK293T GFP-POI reporter cells (IKZF1)
Assay type: cell-based
experimentalSetup: 1 μM, 24 h, HEK293T GFP reporter
measurementKind: IKZF1% degradation at 1 μM (%)

O=C1CCC(N2Cc3cc(NC(=O)Cc4ccc5ccccc5c4)ccc3C2=O)C(=O)N1 (centres unmarked)    98.4
COc1cc(Oc2ccccc2)ccc1C(=O)Nc1ccc2c(c1)CN(C1CCC(=O)NC1=O)C2=O (centres unmarked)    7
COCOc1ccc2cc(C(=O)Nc3ccc4c(c3)CN(C3CCC(=O)NC3=O)C4=O)ccc2c1 (centres unmarked)    8.3
O=C1CCC(N2Cc3cc(NC(=O)c4ccc5c(c4)OCO5)ccc3C2=O)C(=O)N1 (centres unmarked)    9.7
O=C1CCC(N2Cc3cc(NC(=O)C4=Cc5ccc(Br)cc5OC4)ccc3C2=O)C(=O)N1 (centres unmarked)    47.5

A. COc1ccc2cccc(CC(=O)Nc3ccc4c(c3)CN(C3CCC(=O)NC3=O)C4=O)c2c1 (centres unmarked)
B. COc1ccc(Oc2ccc(C(=O)Nc3ccc4c(c3)CN(C3CCC(=O)NC3=O)C4=O)cc2)cc1 (centres unmarked)
Which record shows the lower IKZF1% degradation at 1 μM: the first, A , or the second, B ? Label of pick, please.
B

###

testedOn: CK1α (Homo sapiens, UniProt P48729+Q96SW2)
Construct: expressed in transfected cells; host or cells: HEK293T (lentiviral transduction, puromycin selection, FACS sorting)
methodNotes: Flow cytometry for measuring degradation, HEK293T GFP-POI reporter cells (CK1α)
Assay type: cell-based
experimentalSetup: 100 nM, 24 h, HEK293T GFP reporter
measurementKind: CK1α % degradation at 100 nM (%)

Check out these entries, answers already filled in.
O=C1CCC(N2Cc3cc(NC(=O)C4=Cc5ccc(OC(F)(F)F)cc5OC4)ccc3C2=O)C(=O)N1 (centres unmarked) [DEG-82]    58
COc1ccc(/C=C/C(=O)Nc2ccc3c(c2)CN(C2CCC(=O)NC2=O)C3=O)cc1 (centres unmarked) [DEG-60]    64.3
N#Cc1ccc2cc(C(=O)Nc3ccc4c(c3)CN(C3CCC(=O)NC3=O)C4=O)ccc2c1 (centres unmarked) [DEG-91]    74.6
O=C1CCC(N2Cc3cc(NC(=O)c4ccc5cc(O)ccc5c4)ccc3C2=O)C(=O)N1 (centres unmarked) [DEG-90]    54.5
O=C1CCC(N2Cc3cc(NC(=O)c4cccc(Oc5ccccc5)c4)ccc3C2=O)C(=O)N1 (centres unmarked) [DEG-55]    57.6

P. CN1C(=O)CCc2cc(C(=O)Nc3ccc4c(c3)CN(C3CCC(=O)NC3=O)C4=O)ccc21 (centres unmarked) [DEG-97]
Q. CC(=O)N1CCC[C@H]1C(=O)Nc1ccc2c(c1)CN(C1CCC(=O)NC1=O)C2=O (some centres unmarked) [DEG-96]
R. O=C1CCC(N2Cc3cc(NC(=O)Cc4ccc5ccccc5c4)ccc3C2=O)C(=O)N1 (centres unmarked) [DEG-71]
S. O=C1CCC(N2Cc3cc(NC(=O)c4ccc5c(c4)OCCO5)ccc3C2=O)C(=O)N1 (centres unmarked) [DEG-53]
Hi! Can you put these in order of CK1α % degradation at 100 nM, lowest number first? Answer by writing out the labels in the requested order.
R, Q, S, P
(R: −190.2%, Q: 9.2%, S: 36.2%, P: 60.1%)

I. O=C1CCC(N2Cc3cc(NC(=O)c4ccc(Sc5ccccc5)cc4)ccc3C2=O)C(=O)N1 (centres unmarked) [DEG-73]
II. CC(=O)Nc1ccc2c(c1)CN(C1CCC(=O)NC1=O)C2=O (centres unmarked) [DEG-66]
Thinking about recorded CK1α % degradation at 100 nM values, which is higher, I or II ? Label of pick, please.
I
(I: 56.6%, II: 12%)

A. O=C1CCC(N2Cc3cc(NC(=O)C4=COc5ccccc5O4)ccc3C2=O)C(=O)N1 (centres unmarked) [DEG-63]
B. O=C1CCC(N2Cc3cc(NC(=O)C4=Cc5ccccc5OC4)ccc3C2=O)C(=O)N1 (centres unmarked) [DEG-52]
Which record shows the lower CK1α % degradation at 100 nM: the first, A , or the second, B ? Label of pick, please.
A
(A: 46.4%, B: 68.4%)

a. COc1ccc2c(c1)C=C(C(=O)Nc1ccc3c(c1)CN(C1CCC(=O)NC1=O)C3=O)CO2 (centres unmarked) [DEG-78]
b. COc1ccc(Oc2ccc(C(=O)Nc3ccc4c(c3)CN(C3CCC(=O)NC3=O)C4=O)cc2)cc1 (centres unmarked) [DEG-70]
Which record shows the lower CK1α % degradation at 100 nM: the first, a , or the second, b ? Label of pick, please.
b
(b: 44.9%, a: 65.5%)
